Listing of recorded TGI by entry.
- Tested on: A549 NSCLC
- assayName: NCI tumour cell line growth inhibition, 48 h
metric: TGI

compound	assayValue
CON(C)C(=O)CNC(=O)OCC1c2ccccc2-c2ccccc21	> 100 µM
CC(C)(C)c1ccc2c(c1)S(=O)(=O)Nc1ccccc1NS(=O)(=O)c1cc(C(C)(C)C)ccc1OCCOCCOCCO2	> 100 µM
COc1cc(-c2ccc3c(c2)NC(=O)/C3=C\c2ccc[nH]2)ccc1O	> 50 µM
O=C1/C(=C/c2ccc([N+](=O)[O-])cc2)C(=O)N(c2ccccc2)C1c1ccccc1 (stereo unspecified)	> 10 µM
COc1cc(/C=C2\C(=O)N(c3ccccc3)C(c3ccccc3)S2(=O)=O)cc(OC)c1OC (stereo unspecified)	> 100 µM
O=C(N/N=C\c1cccc2c([N+](=O)[O-])cccc12)Nc1ccccc1	28.3 µM
Nc1cc2[nH]c(=O)c(=O)[nH]c2cc1N	> 100 µM
COc1ccc2ccccc2c1/C=C/C(=O)c1ccccc1	10.4 µM
COC1(OC)C2(Cl)C(Cl)=C(Cl)C1(Cl)C1C=CC=CC12 (stereo unspecified)	> 100 µM
CC(C)C(Nc1c2ccccc2nc2ccccc12)C(=O)O (stereo unspecified)	> 100 µM
CCOc1ccccc1NC(=O)CC(C(=O)OC)C(=O)C(=O)OC (stereo unspecified)	> 100 µM

* * *

- Test system: COLO 205 colon
- assayName: NCI tumour cell line growth inhibition, 48 h; in the data active = GI50 below about 0.43 µM; inactive = the rest
Labels: True (active), False (inactive)

recordSmiles	classAssignment
COc1ccc(-c2n[nH]nc2-c2cc(OC)c(OC)c(OC)c2)cc1	True
COC1=CC(=O)c2nc(-c3cccc(C)n3)[nH]c2C1=O	False
O=C(NC1=CC(=O)c2ccccc2C1=O)c1ccccc1	False
Cc1cccc(N2CCN(C(=S)c3ccc4c(c3)OCO4)CC2)c1	False

* * *

Listing of recorded log10 of TGI by entry.
- Tested on: SK-MEL-5 melanoma
- assayName: NCI tumour cell line growth inhibition, 48 h
metric: log10 of TGI (log10 of the value in µM)

compound	studySystem	metric	assayValue
CC(C)(C)OC(=O)NC(Cc1ccc(OCc2ccccc2)cn1)C(=O)N1CCCCC1 (stereo unspecified)	SK-MEL-5 melanoma	log10 of TGI	1.49
NN/C(=N\S(=O)(=O)c1cc2ccccc2s1)Nc1ccc(Cl)cc1	SK-MEL-5 melanoma	log10 of TGI	1.50
CCOC(=O)/C=C(/C(=O)OCC)n1ccc(=O)n(Cc2cn(COCCOC(C)=O)nn2)c1=O	SK-MEL-5 melanoma	log10 of TGI	1.88
O=C1C=C(C2=CC(=O)C(=O)c3ccccc32)c2ccccc2C1=O	SK-MEL-5 melanoma	log10 of TGI	0.91
CN1C/C=C\CCOc2cccc(c2)-c2ccnc(n2)Nc2cccc(c2)C1	SK-MEL-5 melanoma	log10 of TGI	-0.69

* * *

- Test system: RXF 393 renal
- assayName: NCI tumour cell line growth inhibition, 48 h

molecule	boundOperator	TGI [µM]
C(=Nc1ccc(-c2nc3ccccc3[nH]2)cc1)c1cccs1	>	100
CC(C)[Si](OC1=C(C(=O)N(C)c2cccc(Cl)c2)CCCC1)(C(C)C)C(C)C	=	18.9
Cc1ccc(N=Nc2c(O)ccc3cc(S(=O)(=O)O)cc(S(=O)(=O)O)c23)cc1	>	100
NCCCCN(CCCN)/[N+]([O-])=N\O	>	100
COC(=O)[C@@H](C)CNS(=O)(=O)N(c1cc(C(F)(F)F)cc(C(F)(F)F)c1)C1CCN(Cc2ccc(F)cc2)CC1	=	23.7
COc1ccc(Nc2c3ccccc3nc3occc23)cc1	=	17.7
COC1C=CC(O)C(CO)O1 (stereo not given)	>	100
Cc1cc(S(=O)(=O)N=C2N(Cc3ccccc3)CCN2Cc2ccccc2)c(S)cc1Cl	>	100
O=C1OC(c2ccccc2)=N/C1=C\c1cccc2ccccc12	>	100
CC1NC(=O)CC(c2ccccc2)N(N=O)C1c1ccccc1 (stereo not given)	=	53.5
CCCN1CCC(=O)N(CCC(F)(F)C(F)(F)C(F)(F)C(F)(F)C(F)(F)C(F)(F)F)C1=S	>	100
COc1cccc(-c2ccc3c4c2O[C@H]2C(=O)CC[C@@]5(O)[C@@H](C3)N(CC3CC3)CC[C@]425)c1	=	21.8
O=C1C=C(C2=CC(=O)C(=O)c3ccccc32)c2ccccc2C1=O	>	100
O=Cc1ccc(OCc2cccc(COc3ccc(/C=N\Nc4ccc([N+](=O)[O-])cc4[N+](=O)[O-])cc3)n2)cc1	>	100
CC1(C)SCc2nc3ncccc3n21	>	100
O=S(=O)(N=S(c1ccccc1)c1ccccc1)c1ccccc1	>	100
COC(=O)/C(=N\Nc1nnc(C)n1N)C(C#N)c1ccc(Cl)cc1 (stereo not given)	>	100
COc1cc(/C=C(\C#N)C(N)=O)cc(Br)c1O	>	100
COc1cc(/C=C2\C(=O)N(c3ccccc3)C(c3ccccc3)S2(=O)=O)cc(OC)c1OC (stereo not given)	=	92.2
Cn1c2c(c3ccccc31)CC1c3c(c4ccccc4n3C)CC21 (stereo not given)	>	100
CC(C)(C)c1ccc2c(c1)S(=O)(=O)Nc1ccccc1NS(=O)(=O)c1cc(C(C)(C)C)ccc1OCCOCCOCCO2	>	100
c1ccc2c(c1)ccn2CCc1c[nH]c2ccccc12	>	10
Nn1c(=O)n(Cc2ccccc2)n(-c2ccccc2)c1=O	>	100
COC(=O)[C@H](C)NC(=O)NC(=O)NC(=O)CI	=	25.5
NN/C(=N\S(=O)(=O)c1cc2ccccc2s1)Nc1ccc(Cl)cc1	=	29.6
NC(N)=N/N=C(\c1nc2ccc([N+](=O)[O-])cc2[nH]c1=O)C(O)c1ccc([N+](=O)[O-])cc1 (stereo not given)	>	100
COc1cc(/C=C2/C[C@H]3[C@@H]4CC=C5C[C@@H](O)CC[C@]5(C)[C@H]4CC[C@]3(C)NC2=O)cc(OC)c1OC	=	42.3
COc1ccc(-c2n[nH]nc2-c2cc(OC)c(OC)c(OC)c2)cc1	=	26.2
c1cc(CNC23CC4CC(CC(C4)C2)C3)cc(C[N+](Cc2cccc(CNC34CC5CC(CC(C5)C3)C4)c2)(Cc2cccc(CNC34CC5CC(CC(C5)C3)C4)c2)Cc2cccc(CNC34CC5CC(CC(C5)C3)C4)c2)c1 (stereo not given)	=	6.54
CCOC(=O)c1c(C)n(Cc2ccc(Cl)cc2Cl)c2c1c(CN(C)C)c(O)c1[nH]cnc12	=	28.7
CCCCN1C(=O)N(c2ccc(OCC)cc2)C2N(CCCC)C1C(C)(C)C2(C)C (stereo not given)	=	39.1
COc1cc2c(cc1OC)C(CC(=O)NN=C(C)C)NCC2 (stereo not given)	>	100
COc1ccc(C2OC[C@H]3O[C@@H](OCc4ccccc4)[C@H](O)[C@@H](O)[C@@H]3O2)cc1 (stereo not given in full)	>	100
Oc1ccccc1C(Sc1nc2ccccc2s1)Sc1nc2ccccc2s1	>	100
O=C(NC1=CC(=O)c2ccccc2C1=O)c1ccccc1	=	3.12
COc1cc2c3c(n(CCCNC(=O)OCC4c5ccccc5-c5ccccc54)c(=O)c2cc1OC)-c1cc2c(cc1/C3=C\CCNC(=O)OCC1c3ccccc3-c3ccccc31)OCO2	=	14.6
CC(=O)OCC12C(=O)C[C@@H](C)C3(CC(c4ccoc4)OC3=O)C1CCC(OC(C)=O)C21CO1 (stereo not given in full)	>	100
O=C(NNC(=S)Nc1cccc(Cl)c1)c1cc(-c2ccccc2)nc2ccccc12	=	32.7
CCOC(=O)c1cc(C(O)P2(=O)N(CC(C)(C)C)[C@@H]3CCCC[C@H]3N2CC(C)(C)C)cn1C(=O)OC(C)(C)C (stereo not given in full)	=	26.6
O=C1/C(=N/O)Cc2c(Br)ccc(Br)c21	>	100

* * *

- Test system: NCI-H23 lung
- assayName: NCI tumour cell line growth inhibition, 48 h
metric: TGI

molecule	metric	assayValue
CCOC(=O)C1=C(C)N(NC(=O)Nc2ccccc2)C(=O)C1=P(c1ccccc1)(c1ccccc1)c1ccccc1	TGI	> 100 µM
O=C1C2C3C=C4c5ccccc5N(c5ccccc5)C4(C2C(=O)N1Cc1ccccc1)C1C(=O)N(Cc2ccccc2)C(=O)C31 (stereo not drawn)	TGI	> 100 µM
COc1cc(CNCc2cc(OC)c(OC)c(OC)c2)cc(OC)c1OC	TGI	> 10 µM
CN1C/C=C\CCOc2cccc(c2)-c2ccnc(n2)Nc2cccc(c2)C1	TGI	0.599 µM
CC1OC(OC2C(O[C@H]3CC[C@@]4(C)C(=CC[C@H]5[C@@H]6C[C@@H]7O[C@]8(CC[C@@H](CO)CO8)[C@@H](C)[C@@H]7[C@@]6(C)CC[C@@H]54)C3)OC(CO)C(O)C2OC2OC(CO)C(O)C(O)C2O)C(O)C(O)C1O (stereo partly drawn)	TGI	4.07 µM
O=C(O)c1ccc([N+](=O)[O-])c2cc3cnccc3nc12	TGI	62.9 µM
O=C(O)C1OC(n2cc(F)c(=O)[nH]c2=O)CC1O (stereo not drawn)	TGI	> 100 µM
NS(=O)(=O)c1ccc(N=Nc2c(O)[nH]c3ccc(-c4cnco4)cc23)cc1	TGI	> 25 µM
